Data provenance: patent US20220081421A1

Record form. Attribute: MIC. Fill in for each entry.
- Tested on: K. pneumoniae
- procedureText: MIC by broth microdilution (CLSI), K. pneumoniae
- Format: cell-based
- conditionLabel: Klebsiella pneumoniae, broth microdilution, cation adjusted Mueller-Hinton Broth, 35° C., 18-24 h; read-out: K. pneumoniae MIC
- Method: Minimal inhibitory concentrations (MIC) were determined by the broth microdilution method in accordance with the Clinical and Laboratory Standards Institute (CLSI) guidelines. […] Following incubation, the lowest concentration of the drug that prevented visible growth (OD600 nm<0.05) was recorded as the MIC. Performance of the assay was monitored by the use of laboratory quality-control strains and levofloxacin, a compound with a defined MIC spectrum, in accordance with CLSI guidelines.

Examples with answers:
compound	MIC
O=c1ccoc(CNc2ccc(C#Cc3ccc(CN4CCOCC4)cc3)cc2)c1O	8 to 32 µg/mL
C=CCNCC(Cc1ccc(C#CC#Cc2ccc(C(=O)NCCO)cc2)cc1)c1nc[nH]c(=O)c1O (centres unmarked)	8 to 32 µg/mL
Cc1ncc(C#Cc2ccc(CC(C(=O)NCC(F)F)c3nc[nH]c(=O)c3O)cc2)cn1 (centres unmarked)	> 32 µg/mL
C=C(Cc1ccc(C#CC#Cc2ccc(C(=O)N3CCN(C)CC3)cc2)cc1)c1nc[nH]c(=O)c1O	1 to 8 µg/mL
O=C1N(CCc2nc[nH]c(=O)c2O)Cc2cc(Br)cn21	> 32 µg/mL

Provide reported MIC for each item, in the same order as listed.
1. C/C(=N\O)C(Cc1ccc(C#Cc2ccc(CN3CCOCC3)cc2)cc1)c1ncnc(O)c1O (centres unmarked)
2. O=c1[nH]cnc(CCc2ccc(C#Cc3ccc(CN4CCOCC4)nc3)cc2)c1O
3. O=c1[nH]cnc(C(CNCCF)Cc2ccc(C#Cc3ccc(CN4CCOCC4)nc3)cc2)c1O (centres unmarked)
4. N#CCC(Cc1ccc(C#Cc2ccc(CN[C@H]3CCOC3)cc2)cc1)c1nc[nH]c(=O)c1O (some centres unmarked)

Result:
1: > 32 µg/mL; 2: 1 to 8 µg/mL; 3: > 32 µg/mL; 4: 8 to 32 µg/mL

Provide reported MIC for each item, in the same order as listed.
1. C=CCNCC(Cc1ccc(C#CC#Cc2ccc(C(=O)O)cc2)cc1)c1nc[nH]c(=O)c1O (centres unmarked)
2. O=C(NCCc1nc[nH]c(=O)c1O)n1cc(C#Cc2ccc(CN3CCOCC3)cc2)cc1CO
3. O=c1cccc(CC(CO)c2ccc(C#Cc3ccc(CN4CCOCC4)cc3)cc2)n1O (centres unmarked)
4. CC(=O)NCC(Cc1ccc(C#Cc2ccc(CN3CCOCC3)cc2)cc1)c1nncc(O)c1O (centres unmarked)
5. O=c1[nH]cnc(CNc2ccc(C#Cc3ccc(CN4CCOCC4)cc3)cc2)c1O
6. Nc1ncc(C#Cc2ccc(CC(C(=O)NCC(F)F)c3nc[nH]c(=O)c3O)cc2)cn1 (centres unmarked)
7. C=CCNCC(Cc1ccc(C#CC#Cc2ccccc2N)cc1)c1nc[nH]c(=O)c1O (centres unmarked)

Result:
> 32 µg/mL
> 32 µg/mL
8 to 32 µg/mL
8 to 32 µg/mL
> 32 µg/mL
> 32 µg/mL
> 32 µg/mL

Please fill in: MIC reported for `O=c1ccoc(CCc2ccc(C#Cc3ccc(CN4CCOCC4)cc3)cc2)c1O` = > 32 µg/mL
